Tested on: U2OS
Assay: Multiplex assay against U2OS
Type: toxicity, cell-based
Conditions: human, 24 h, 1 µM, compound concentration 1 uM, replicate 2
Assay Readout: Population Apoptotic (%)
Just the number please, in %, no unit attached.

Please review the following examples before continuing.
Enquiry: Using known records, supply Population Apoptotic (%) for Cc1ccc(C)c(Oc2ccncc2C(=O)N2CCN(C3CC3)c3ccccc32)c1
Return: 42

Enquiry: Fill in reported Population Apoptotic (%) for this entry: Cc1nc(N2CC[C@H](O)C2)ncc1-c1cc(C(F)(F)F)cc2[nH]ncc12
Return: 14

Enquiry: Tell me Population Apoptotic (%) reported for CC(C)NC(=O)N1CC[C@H](NC2=Nc3cc(F)ccc3N(CC(F)F)c3ccc(Cl)cc32)C1
Return: 50

Next:
Enquiry: Give Population Apoptotic (%) for O=c1[nH]c2ccccc2n1C1CCN(Cc2ccc(-c3[nH]c4cc5ncnc5cc4nc3-c3ccccc3)cc2)CC1
Return: 41

Enquiry: Supply reported Population Apoptotic (%) belonging to this molecule: Cc1ccc2c(c1)c1c(n2CCc2ccc(C)nc2)CCN(C)C1 [LATREPIRDINE]
Return: 55

Enquiry: Read off the recorded Population Apoptotic (%) for C=CC(=O)Nc1ccc2[nH]c(=O)n(C3CCN(Cc4ccc(-c5nc6cc[nH]c(=O)c6cc5-c5ccccc5)cc4)CC3)c2c1 [Borussertib]
Return: 37

====

The following compounds are shown together with reported Population Hoechst High Intensity Objects (%) values.
Tested on: HEK-293T
Assay: Multiplex assay against HEK293T
Assay type: toxicity, cell-based
Conditions: human, 12 h, 10 µM, compound concentration 10 uM, replicate 1
Form entry: value (%) — number only.

Check out these entries, answers already filled in.
Enquiry: Read the entry CNC(=O)Nc1ccc2c(c1)[C@@]1(CC2)OC(=O)N(CC(=O)N(Cc2ccc(F)cc2)[C@@H](C)C(F)(F)F)C1=O and write its reported Population Hoechst High Intensity Objects (%).
Return: 17

Enquiry: State its Population Hoechst High Intensity Objects (%): CC(C)c1noc(N2CCC(COc3ccc(-c4ccc(S(C)(=O)=O)cc4)nc3)CC2)n1
Return: 18

Enquiry: Given CC(C)(C)NC[C@H](O)COc1nsnc1N1CCOCC1 , respond with its Population Hoechst High Intensity Objects (%).
Return: 13

Continuing:
Enquiry: Identify the reported Population Hoechst High Intensity Objects (%) for the following entry. CN1CCN(Cc2ccc(Nc3ncc(Cl)c(Nc4ccccc4S(=O)(=O)N(C)C)n3)cc2)CC1
Return: 18

Enquiry: Respond only with Population Hoechst High Intensity Objects (%) recorded for Cc1nc(N2CC[C@H](O)C2)ncc1-c1cc(C(F)(F)F)cc2[nH]ncc12
Return: 9

Enquiry: Give the reported Population Hoechst High Intensity Objects (%) for this compound. Cc1cccc(CN2CCN(C(c3ccccc3)c3ccc(Cl)cc3)CC2)c1.Cl.Cl (stereo not drawn)
Return: 16

Enquiry: Give the value of Population Hoechst High Intensity Objects (%) reported for the following: C=CC(=O)Nc1cccc(Oc2nc(Nc3ccc(N4CCN(C)CC4)cc3OC)ncc2Cl)c1
Return: 12

Enquiry: Hello, please tell me recorded Population Hoechst High Intensity Objects (%) for this one: C=CC(=O)Nc1ccc2[nH]c(=O)n(C3CCN(Cc4ccc(-c5nc6cc[nH]c(=O)c6cc5-c5ccccc5)cc4)CC3)c2c1
Return: 13

====

Tested on: Fibroblast
Assay: Multiplex assay against human fibroblast
Type: toxicity, cell-based
Conditions: 24 h, 1 µM, compound concentration 1 uM, replicate 1
The label t is reserved for Population Apoptotic (%) strictly under 50%; f covers values equal to or above it.

Enquiry: Is 50% strictly greater than the molecule's reported Population Apoptotic (%)? molecule: O=C(c1cc2c(cc1F)OC(c1ccc(F)cc1)(c1ccc(Cl)cc1Cl)O2)N1CCOCC1 (stereo not drawn)
Return: t

Enquiry: Determine if CN1CCN(Cc2ccc(Nc3ncc(Cl)c(Nc4ccccc4S(=O)(=O)N(C)C)n3)cc2)CC1 [DUBERMATINIB] shows Population Apoptotic (%) strictly lower than 50%.
Return: f

Next:
Enquiry: Confirm or reject: Population Apoptotic (%) of CCc1nn(CCCN2CCN(c3cccc(Cl)c3)CC2)c(=O)n1CCOc1ccccc1.Cl [NEFAZODONE HYDROCHLORIDE] lies strictly below 50%
Return: f

Enquiry: Just wondering, is Population Apoptotic (%) of COc1ccccc1CN[C@H]1C2CCN(CC2)[C@H]1C(c1ccccc1)c1ccccc1 [CP-96345] below 50%?
Return: f

Enquiry: Input C[C@]12CC[C@@H]3c4ccc(O)cc4CC[C@H]3[C@@H]1CC[C@@H]2O [ESTRADIOL] ; condition: Population Apoptotic (%) strictly below 50%. Does it hold?
Return: t

Enquiry: Given the entry CC(C)OC(=O)N1CCC(Oc2ncnc3c2cnn3-c2ccc(S(C)(=O)=O)cc2F)CC1 , would its reported Population Apoptotic (%) be below 50%?
Return: f

Enquiry: Consider the molecule Cc1ccccc1C(c1ccccc1C)N1C2CCC1CC(O)(c1ccccc1)C2 (stereo not drawn) . Is its Population Apoptotic (%) strictly less than 50%?
Return: f
